These entries and their values trace back to PubChem BioAssay AID2315.

experiment: A qHTS for Small Molecule Inhibitors of Shiga Toxin; note: 0% is about no effect
test_parameters: Vero cells, Shiga toxin protein synthesis inhibition reporter; at 38.7 µM, hits give high values
About 27,000 (9.3%) of roughly 290,000 compounds were called active. For the sample, actives were picked, then their nearest neighbours and some compounds at random.
// values below are reported inhibition
Could you give me the number in %? Just the number is fine.

Reference set, count: 3
{"compound": "COc1cccc(C(=O)Nc2nnc(S(=O)(=O)N(C)c3ccccc3)s2)c1", "test_value": 3.08}
{"compound": "CCCC(C)NC(=O)C1CCN(C(=O)C2CC(=O)N(c3ccc(C)cc3)C2)CC1 (stereo unspecified)", "test_value": 9.21}
{"compound": "CC(C)[C@@H](NC(=O)OC(C)(C)C)C(=O)NCC1CCC(C(=O)N[C@@H](Cc2ccccc2)C(=O)O)CC1 (stereo partly specified)", "test_value": 2.35}

Would you kindly share the measured inhibition for "Cc1ncc(CC(=O)n2cc(C(=O)c3cc(Cl)ccc3O)cn2)s1" ?
8.82

Would you mind telling me what inhibition value was observed for "O=C(CSc1nc(-c2ccco2)cc(C(F)(F)F)n1)NCc1cccs1" ?
-12.1
